compounds and their reported pEC50
TARGET_OR_SYSTEM: Pig brain tubulin (Sus scrofa, UniProt P02554)
Construct: Pig brain tubulin was prepared by two cycles of assembly and disassembly
Sequence (P02554 whole entry): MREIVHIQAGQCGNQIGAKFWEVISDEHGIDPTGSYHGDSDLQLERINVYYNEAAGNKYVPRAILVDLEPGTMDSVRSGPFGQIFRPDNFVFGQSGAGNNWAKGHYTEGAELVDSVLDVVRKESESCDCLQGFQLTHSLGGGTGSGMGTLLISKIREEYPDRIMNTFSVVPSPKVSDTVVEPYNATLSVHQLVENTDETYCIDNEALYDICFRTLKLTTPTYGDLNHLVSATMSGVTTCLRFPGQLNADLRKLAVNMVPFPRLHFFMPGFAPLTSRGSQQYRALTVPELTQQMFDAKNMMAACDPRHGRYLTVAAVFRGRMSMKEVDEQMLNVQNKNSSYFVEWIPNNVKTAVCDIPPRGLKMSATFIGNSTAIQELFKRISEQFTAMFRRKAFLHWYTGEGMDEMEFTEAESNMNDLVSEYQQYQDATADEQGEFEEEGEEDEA
Sequence (P02550 whole entry partner): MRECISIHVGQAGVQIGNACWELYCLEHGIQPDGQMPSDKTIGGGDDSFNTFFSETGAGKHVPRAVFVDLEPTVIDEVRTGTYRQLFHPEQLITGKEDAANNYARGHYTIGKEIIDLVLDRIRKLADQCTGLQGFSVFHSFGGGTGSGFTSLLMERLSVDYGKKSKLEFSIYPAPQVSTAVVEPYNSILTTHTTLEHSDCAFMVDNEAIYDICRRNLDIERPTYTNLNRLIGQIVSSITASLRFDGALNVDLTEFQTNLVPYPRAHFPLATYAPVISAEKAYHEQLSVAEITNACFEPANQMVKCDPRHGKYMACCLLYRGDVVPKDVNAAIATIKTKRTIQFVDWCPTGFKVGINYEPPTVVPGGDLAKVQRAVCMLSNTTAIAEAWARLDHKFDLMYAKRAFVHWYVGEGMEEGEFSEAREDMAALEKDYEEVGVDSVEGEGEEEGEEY
METHOD_DESCRIPTION: Microtubule assembly and disassembly assay (tubulin polymerizing activity)
ASSAY_CONTEXT: effective dose that induces 50% tubulin polymerisation; 0.5 mg/ml tubulin, 37° C., turbidity at 340 nm; read-out: ED50 (the source's name)
Friendly reminder that pEC50 comes from taking -log10 of the concentration in mol/L.

Completed entries (count: 5):
smi=CO[C@H]1C=CC[C@@H](OC(=O)/C=C/c2cn(C)cn2)C[C@H]2C(C)=CC[C@H](C(C)C)[C@H]2C[C@@H]1OC(=O)C(C)(C)C property_label=pEC50 recorded_number=5.52
smi=CC(=O)O[C@@H]1C/C=C\C[C@@H](OC(=O)/C=C/c2cn(C)cn2)C[C@H]2C(C)=CC[C@H](C(C)C)[C@H]2C1 property_label=pEC50 recorded_number=5.70
smi=CC1=CC[C@H](C(C)C)[C@H]2CC(=O)C/C=C\C[C@@H](OC(=O)/C=C/c3cn(C)cn3)C[C@@H]12 property_label=pEC50 recorded_number=6.70
smi=CC(=O)O[C@H]1C=CC[C@@H](OC(=O)/C=C/c2cn(C)cn2)C[C@H]2C(C)=CC[C@H](C(C)C)[C@H]2C[C@@H]1OC(=O)C(C)(C)C property_label=pEC50 recorded_number=6.00
smi=CC1=CC[C@H](C(C)C)[C@H]2C[C@H](OC(=O)C(C)(C)C)[C@@H](O)C=CC[C@@H](OC(=O)C=Cc3cn(C)cn3)C[C@@H]12 property_label=pEC50 recorded_number=6.00

In the following, a different compound is considered.
Query :: I'd like to know its pEC50. The compound in question is C=C1C/C=C\C[C@@H](OC(=O)/C=C/c2cn(C)cn2)C[C@H]2C(C)=CC[C@H](C(C)C)[C@H]2C1
Result :: 5.30
